# METHOD_DESCRIPTION: Three-treatment crossover pharmacokinetics of IN nalmefene, three dosing regimens (Example 13)
# SETUP_CONDITIONS: human, plasma, other: intranasal (IN spray), 3 mg, […], Max, T1 (3 mg IN, one spray in one nostril); time 24.0
MEASUREMENT_NAME: concentration at 24 h
The reply should read as a number followed by its unit.

Ask: Look at this compound and give its reported concentration at 24 h. C=C1CC[C@@]2(O)[C@H]3Cc4ccc(O)c5c4[C@@]2(CCN3CC2CC2)[C@H]1O5
Reply: 0.785 ng/mL

----------
# METHOD_DESCRIPTION: Three-treatment crossover pharmacokinetics of IN nalmefene, three dosing regimens (Example 13)
# SETUP_CONDITIONS: human, plasma, other: intranasal (IN spray), 3 mg, […], Max, T1 (3 mg IN, one spray in one nostril); time 8.00
MEASUREMENT_NAME: concentration at 8 h
The reply should read as a number followed by its unit.

Ask: Look at this compound and give its reported concentration at 8 h. C=C1CC[C@@]2(O)[C@H]3Cc4ccc(O)c5c4[C@@]2(CCN3CC2CC2)[C@H]1O5
Reply: 2.19 ng/mL

----------
# METHOD_DESCRIPTION: Two-period crossover pharmacokinetics of nalmefene 3 mg IN vs 1.0 mg IM (Example 12)
# SETUP_CONDITIONS: human, plasma, other: intranasal, 3 mg, Median plasma concentration, Treatment A 3.0 mg IN; 1.00 h
MEASUREMENT_NAME: concentration at 1 h (ng/mL)
Express the result in ng/mL but write the number alone.

Ask: Look at this compound and give its reported concentration at 1 h. C=C1CC[C@@]2(O)[C@H]3Cc4ccc(O)c5c4[C@@]2(CCN3CC2CC2)[C@H]1O5
Reply: 4.68

----------
# METHOD_DESCRIPTION: Three-treatment crossover pharmacokinetics of IN nalmefene, three dosing regimens (Example 13)
# SETUP_CONDITIONS: human, plasma, other: intranasal (IN) spray, 3 mg, […], Median, T1 (3 mg IN, one spray in one nostril); time 2.00
MEASUREMENT_NAME: concentration at 2 h

Ask: Look at this compound and give its reported concentration at 2 h. C=C1CC[C@@]2(O)[C@H]3Cc4ccc(O)c5c4[C@@]2(CCN3CC2CC2)[C@H]1O5
Reply: 4.62 ng/mL

----------
# METHOD_DESCRIPTION: Three-treatment crossover pharmacokinetics of IN nalmefene, three dosing regimens (Example 13)
# SETUP_CONDITIONS: human, plasma, other: intranasal (IN) spray, 3 mg, […], Mean, T1 (3 mg IN, one spray in one nostril); time 48.0
MEASUREMENT_NAME: concentration at 48 h (ng/mL)
Express the result in ng/mL but write the number alone.

Ask: Look at this molecule and give its reported concentration at 48 h. C=C1CC[C@@]2(O)[C@H]3Cc4ccc(O)c5c4[C@@]2(CCN3CC2CC2)[C@H]1O5 [Nalmefene]
Reply: 0.0942

----------
# METHOD_DESCRIPTION: Three-treatment crossover pharmacokinetics of IN nalmefene, three dosing regimens (Example 13)
# SETUP_CONDITIONS: human, plasma, other: intranasal (IN spray), 6 mg, […], Mean; Time 48.0; T3: 6 mg nalmefene HCl IN, two 0.1 mL sprays in one nostril
MEASUREMENT_NAME: concentration at 48 h (ng/mL)
Express the result in ng/mL but write the number alone.

Ask: Look at this molecule and give its reported concentration at 48 h. C=C1CC[C@@]2(O)[C@H]3Cc4ccc(O)c5c4[C@@]2(CCN3CC2CC2)[C@H]1O5
Reply: 0.182
